Assay protocol: small molecules captured by biotinylated probe aFST – biochemical, small-molecule microarray, fluorescence 635/667, stem cell growth factor project, primary screen (AID 1086);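 further: score merges 667 nm fluorescence with signal-to-noise of each printed compound spot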
Experimental parameters: higher = more signal
Measured quantity: composite z-score
One number for each entry.

Example entries and their recorded answers appear below.
COc1cc(NN2C(C(O)c3ccc(I)cc3)C=CC3C(=O)N(C)C(=O)C32)cc(OC)c1OC (centres undefined)    -0.0647
COCCOC(=O)N1C(=O)[C@@]2(c3cc(C#CCNC(N)=O)ccc31)[C@H](C(N)=O)[C@H]1C(=O)O[C@H](c3ccccc3)[C@H](c3ccccc3)N1[C@@H]2c1ccc(OCCO)cc1    0.459

Lab note: each compound below needs its composite z-score filled in.
1. CCCCCCCCCCC(O)C1C=CC2C(=O)NC(=O)C2N1Nc1ccccn1 (centres undefined)
2. Cc1cc(C)c(C(O)C2C=CC3C(=O)N(c4ccccc4)C(=O)C3N2Nc2ccc([N+](=O)[O-])cc2)c(C)c1 (centres undefined)

Given back:
[0.0124, 1.51]

###

Target system: Luciferin 4-monooxygenase (Photinus pyralis) (UniProt P08659)
Sequence (P08659 whole entry, looked up): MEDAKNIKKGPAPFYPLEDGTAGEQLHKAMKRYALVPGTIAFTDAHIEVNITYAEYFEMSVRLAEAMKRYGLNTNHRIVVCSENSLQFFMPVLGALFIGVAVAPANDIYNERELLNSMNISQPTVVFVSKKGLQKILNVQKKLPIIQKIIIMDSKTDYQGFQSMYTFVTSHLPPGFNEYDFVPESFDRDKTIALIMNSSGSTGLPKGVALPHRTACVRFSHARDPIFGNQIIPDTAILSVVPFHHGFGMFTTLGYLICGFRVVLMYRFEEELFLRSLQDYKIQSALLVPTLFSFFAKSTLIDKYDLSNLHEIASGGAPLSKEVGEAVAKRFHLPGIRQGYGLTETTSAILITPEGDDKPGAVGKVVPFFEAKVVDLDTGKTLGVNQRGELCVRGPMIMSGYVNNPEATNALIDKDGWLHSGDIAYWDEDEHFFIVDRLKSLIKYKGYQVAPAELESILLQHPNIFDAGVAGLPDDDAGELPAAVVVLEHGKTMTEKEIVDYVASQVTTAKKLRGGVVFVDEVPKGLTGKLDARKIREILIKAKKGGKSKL
Assay protocol: inhibition of purified Photinus pyralis luciferase – biochemical, luminescence, purified enzyme, 2006 set, primary screen (AID 1141);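 further: cell-free assay with purified firefly luciferase at 100 ng per well in PBS; test concentration not given here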
Experimental parameters: purified firefly luciferase, SteadyGlo luminescence, 30 min; higher = more signal, called active from +8 up or from −8 down
Could you please classify the records by z-score using these ranges: lo: < -1; mid: ≥ -1 and < -0.4; hi: ≥ -0.4

Here are 3 compounds together with their reported answers.
CN(C)C(=O)[C@@]1(CCC(=O)OC(C)(C)C)N=C(c2ccc(OCCCO)cc2)O[C@H]1c1ccccc1N=[N+]=[N-]    lo
COc1cc2c(cc1OC)CN(C(=O)[C@@H]1[C@H]3C(=O)O[C@H](c4ccccc4)[C@H](c4ccccc4)N3[C@H](c3ccc(OCCO)cc3)[C@@]13C(=O)Nc1ccc(C#CCCO)cc13)CC2    mid
COCCOC(=O)N1C(=O)[C@@]2(c3cc(C#CC4(O)CCCCCC4)ccc31)[C@H](C(=O)NC[C@H](O)c1ccccc1)[C@H]1C(=O)O[C@H](c3ccccc3)[C@H](c3ccccc3)N1[C@@H]2c1ccc(OCCO)cc1    hi

Asked: Returns: class label. Input: CC(C)C(CO)N1C(=O)[C@@H]2[C@H]3C(=O)OCC=C[C@H]3OC23C=CCN(Cn2nnc4ccccc42)C(=O)[C@@H]13 (stereo partly drawn)
Given back: hi

Asked: Returns: class label. Input: "[N-]=[N+]=NCc1ccccc1C[C@]1(C(=O)NCCN2CCOCC2)COC(c2ccc(OCCCO)cc2)=N1"
Given back: mid

Asked: Returns: class label. Input: "[N-]=[N+]=Nc1ccccc1C[C@]1(C(=O)NCCN2CCOCC2)N=C(c2ccc(OCCCO)cc2)O[C@H]1c1ccccc1N=[N+]=[N-]"
Given back: lo

Asked: Returns: class label. Input: "COc1ccc(C(=O)Nc2ccc(CN3C(=O)[C@]4(O[C@H](CCn5cc([C@H](O)c6ccccc6)nn5)[C@@H]([Si](C)(C)c5ccc(OC)cc5)[C@@H]4C)c4ccccc43)cc2)cc1"
Given back: hi

Asked: Returns: class label. Input: "C=C(CCCC)/C(=C/C[C@H](OC(=O)c1ccncc1)c1ccc(CO)o1)c1cc(C(=O)OC)ccc1OC"
Given back: lo

Asked: Returns: class label. Input: "CC(C)CNC(=O)[C@@]1(c2ccc([N+](=O)[O-])cc2)CC(=O)N(C(C)C)[C@@H]1c1ccc(CO)cc1"
Given back: hi

Asked: Returns: class label. Input: "C=CCOC(=O)[C@@H]1[C@H]2C(=O)O[C@H](c3ccccc3)[C@H](c3ccccc3)N2[C@H](c2ccc(OCCOC(=O)[C@@H]3C[C@@H]4C(=O)N5CCC[C@H]5C(=O)N4[C@@H]3c3cccc(OCCO)c3)cc2)[C@@]12C(=O)Nc1ccc(I)cc12"
Given back: hi

Asked: Returns: class label. Input: "[N-]=[N+]=NCc1ccccc1[C@H]1OC(c2ccc(OCCCO)cc2)=N[C@@]1(Cc1ccccc1)C(N)=O"
Given back: lo

Asked: Returns: class label. Input: "COCCCNC(=O)[C@@H]1c2ccccc2C(=O)N(Cc2cc(F)cc(C(F)(F)F)c2)[C@H]1c1ccc(CO)cc1"
Given back: mid

Asked: Returns: class label. Input: "CCC[C@@H]1C[C@@]1(CCC)[C@@H](NC(=O)c1cccs1)c1ccc(Cl)cc1"
Given back: lo
